Test: NCI Yeast Anticancer Drug Screen. Data for the mlh1 rad18 strain (AID 175)
Conditions: S. cerevisiae mlh1 rad18 strain growth inhibition; at 50.0 µM; stronger effect = higher value
Description: Growth inhibition of yeast strains with defined genetic alterations is measured as a screen for potential anti-cancer activity. Selected strains with alterations in DNA damage repair or cell cycle control were exposed to compounds and growth inhibition was measured relative to vehicle treated controls. The strain used in this assay is mlh1 rad18
The panel holds about 79,000 compounds, 15% with a hit somewhere; the sample as a whole holds those more often.

compound | unitSymbol | growth inhibition
CC(C)c1cc(C(C)C)c(Cc2c(C(C)C)cc(C(C)C)cc2C(C)C)c(C(C)C)c1 | % | 20.3
O=C1C=C(c2ccccc2)CSC1 | % | -4.85
O=C(O)C1[N-]CCNC1C(=O)O.[O]=[V][OH] (stereo unspecified) | % | -5.05
Cc1cc(=O)c2cc(Br)cc(Br)c2[nH]1 | % | 12
CC(=O)NN(C)C(C)=O | % | 10.5
COc1cccc(CSCC(=O)O)c1 | % | -1.6
CC(=O)[CH-]C(=O)c1ccccc1.CC(=O)[CH-]C(=O)c1ccccc1.CC[O-].O=C1C=C([O-])C(=O)c2ccccc21.[Ti+4] | % | 56.9
CCCCC(=O)c1cc2ccccc2c2ccccc12 | % | 6.3
NNc1ccc(C(=O)O)cc1 | % | -4.9
CC(=O)NC(CCCN)C(=O)NCc1ccccc1 (stereo unspecified) | % | -22.6
CCOC(=O)/C(C#N)=C\N(C)C | % | 13.5
CCOC(=O)C1(Br)C(c2ccccc2)NC(=O)NC1(C)Br (stereo unspecified) | % | -14.6
CCN(CC)CCOC(=O)Nc1c(Cl)cccc1Cl | % | 6.05
CCOc1ccc(Nc2nc(N)nc(N)c2N)cc1 | % | 3.8
O=S1OC(c2ccccc2)(c2ccccc2)C(c2ccccc2)(c2ccccc2)O1 | % | -17.4
Cc1ccc2c(c1)[nH]c(=S)n2C=C(C#N)C#N | % | -5.15
CC1(C)C(N2CCOCC2)CS1(=O)=O (stereo unspecified) | % | 3.25
O=c1c(-c2ccccc2)c2oc(c1-c1ccccc1)CS(=O)(=O)CCC2 | % | -2.35
C=C1C(=O)C23C(O)CC4C5(C)CCCC4(C(O)OC5)C2C(OC(C)=O)CC1C3O (stereo unspecified) | % | 0.75
CC1(C)C(CBr)=[N+]([O-])C(C)(C)N1O | % | 21.6
O=P(CCCCBr)(NCc1ccccc1)c1ccccc1 (stereo unspecified) | % | 13.2
COc1ccc(Cc2ccc3c(c2)OCO3)cc1C | % | -3.95
Cn1c(=O)c2[nH]c(N/N=N/c3nncs3)nc2n(C)c1=O | % | -117
Cn1c(CC(O)(C(F)(F)Cl)C(F)(F)Cl)cc(=O)n1-c1ccccc1 | % | 7.2
CC(C)CNC(=O)c1ccccc1 | % | -4.65
CN1C(=O)N(C)C(N2CCCC2)c2c1nc1ccccn1c2=O (stereo unspecified) | % | -29.4
Cc1cc(-c2cscn2)c(O)c([N+](=O)[O-])c1 | % | 7.6
Cc1cccc(C)c1NC(=O)Nc1cccc(O)c1 | % | 26.4
Cc1cc[n+](C)c(-c2ccccc2)c1 | % | 11.6
COC(CNCCO)c1ccccc1 (stereo unspecified) | % | -5.45
COC(=O)C1=C(C(=O)OC)SC(=C2C3=C(SC(C(=O)OC)=C(C(=O)OC)S3)c3ccccc32)S1 | % | 21.2
CCCCCn1[nH]nc(C(=O)OC)c1=O (tested in a mixture with another compound) | % | 34.4
Oc1ccc(CN=Cc2ccccc2)cc1 | % | -10.1
Cc1onc(-c2c(Cl)cccc2Cl)c1C(=O)Nc1ccc(Cl)c(Cl)c1Cl | % | -8.25
CCOC(=O)NC(Nc1ccc(C(=O)O)cc1)(C(F)(F)F)C(F)(F)F | % | 11.4
O=C(C[n+]1ccccc1)c1ccc([N+](=O)[O-])cc1 | % | 38.7
CN1CCS(=O)(=O)CC1 | % | 5.05
O=C(NNC(=O)c1cccc(Br)c1)c1ccccc1 | % | -3.15
CC(C)(C)OC(=O)N(CCCN)CCCCN | % | -53.9
Cn1/c(=N\N=C2\C=C3CCCCC3(C)CC2)sc2ccccc21 (stereo unspecified) | % | 47.1
N#C/C(=C\c1ccccc1Cl)C(N)=S | % | 6.05
CC(=O)N(C)c1ccc(C)cc1 | % | 7
O=C(O)COc1cc2c(cc1Cc1ccc3c(c1)OCO3)OCO2 | % | 8.35
COc1ccc(C[N+](C)(C)N)cc1OC | % | -34.1
Cc1cccc(N2CCN(c3ccc4nonc4c3[N+](=O)[O-])CC2)c1 | % | -15.3
CN(C)C(=O)OCC1COc2ccccc2O1 (stereo unspecified) | % | -12.6
O=C(O)c1cc2cc(O)ccc2[nH]1 | % | -5.25
C=C1CC(CC(=O)C(C)CC2CC(=C)C(=O)O2)OC1=O (stereo unspecified) | % | 26.3
CC(=O)CC(=O)C(C)C.[Cu+2] | % | -17.4
CCOC(=O)C(Br)(C(=O)OCC)C(C)C | % | 9.1
NCC(N)=O | % | 4.1
